Tested on: MDR1
assayName: Cell membrane permeability test on MDR1-MDCK II cells
Assay type: in vitro ADME
measurementConditions: dog, pH 7.4, Papp B to A/Papp A to B
experimentalEndpoint: efflux ratio at 150 min, 2 μM

I = CC(C)CC(NC(=O)CNC(=O)[C@@H]1CCN1c1ccc(F)cc1F)B(O)O (single isomer, unassigned) [WX-333]
II = CC(C)CC(NC(=O)[C@H](Cc1ccccc1)NC(=O)[C@@H]1CCN1c1ccc(F)cc1)B(O)O (single isomer, unassigned) [WX-193]
III = CC(C)CC(NC(=O)[C@H](CC1CC1)NC(=O)[C@@H]1CCN1c1nc(C(F)(F)F)cs1)B(O)O (stereo partly drawn) [WX-308]
List these items ordered by efflux ratio at 150 min, 2 μM, big to small. Answer format: list of labels, ordered as asked. II, III, I

====

assayName: Liver microsome stability test, human
Type: in vitro ADME
measurementConditions: human liver microsomes; human (H) liver microsome; read-out: Liver microsome stability (T1/2, min)
experimentalEndpoint: half-life (min)

CC(C)CC(NC(=O)[C@H](Cc1ccccc1)NC(=O)[C@@H]1CCN1c1nccc(-c2ccccc2)n1)B(O)O (stereo partly shown) [WX-174]
3.5

A = CC(C)CC(NC(=O)[C@H](CC1CC1)NC(=O)[C@@H]1CCN1c1ccc(C(F)(F)F)cn1)B(O)O (stereo partly shown) [WX-306]
B = CC(C)CC(NC(=O)CNC(=O)[C@@H]1CCN1c1nc(C(F)(F)F)cs1)B(O)O (stereo partly shown) [WX-327]
C = CC(C)CC(NC(=O)[C@H](Cc1ccccc1)NC(=O)[C@@H]1CCN1c1ccc(F)cc1)B(O)O (single isomer, unassigned) [WX-193]
Task for the reader: rank each entry by its half-life, from the minimum upward. Answer format: list of labels, ordered as asked. C, A, B
(C: 4.8 min, A: 17.8 min, B: 75 min)

====

assayName: Liver microsome stability test, rat
Type: in vitro ADME
measurementConditions: rat liver microsomes; SD rat (R) liver microsome; read-out: Liver microsome stability (T1/2, min)
experimentalEndpoint: half-life (min)

Study these solved cases before continuing.
CC(C)CC(NC(=O)CNC(=O)[C@@H]1CCN1c1ccc(F)cn1)B(O)O (single isomer, unassigned)
35.5
CC(C)CC(NC(=O)[C@H](CC1CC1)NC(=O)[C@@H]1CCN1c1nc(C(F)(F)F)cs1)B(O)O (stereo partly shown)
26.8
CC(C)CC(NC(=O)CNC(=O)[C@@H]1CCN1c1nc(C(F)(F)F)cs1)B(O)O (stereo partly shown)
26.5

P = CC(C)CC(NC(=O)[C@H](CC1CC1)NC(=O)[C@@H]1CCN1c1ccc(C(F)(F)F)cn1)B(O)O (stereo partly shown)
Q = CC(C)CC(NC(=O)[C@H](Cc1ccccc1)NC(=O)[C@@H]1CCN1c1nccc(-c2ccccc2)n1)B(O)O (stereo partly shown)
Which value of half-life is numerically greater: that of P or that of Q ? Your choice should be expressed through its label. P
(P: 37.4 min, Q: 1.6 min)

====

Test system: MM1.S cells
assayName: In vitro anti-proliferation test on MM1.S cells (CellTiter-Glo)
Type: cell-based
measurementConditions: Homo sapiens, 48 h, 2 days incubation, cell viability
experimentalEndpoint: IC50 (nM)

CC(C)CC(NC(=O)CNC(=O)[C@@H]1CCN1c1ncc(F)cc1F)B(O)O (stereo partly shown)
24

P = CC(C)CC(NC(=O)[C@H](CC1CC1)NC(=O)[C@@H]1CCN1c1nc(C(F)(F)F)cs1)B(O)O (stereo partly shown)
Q = CC(C)CC(NC(=O)CNC(=O)[C@@H]1CCN1c1nc(C(F)(F)F)cs1)B(O)O (stereo partly shown)
R = CC(C)CC(NC(=O)CNC(=O)[C@@H]1CCN1c1ccc(F)cc1)B(O)O (single isomer, unassigned)
List these items ordered by IC50, big to small. Answer format: list of labels, ordered as asked. Q, P, R
(Q: 24.2 nM, P: 8.9 nM, R: 5.8 nM)

====

assayName: Liver microsome stability test, rat
Type: in vitro ADME
measurementConditions: rat liver microsomes; SD rat (R) liver microsome; read-out: Liver microsome stability (T1/2, min)
experimentalEndpoint: half-life (min)

CC(C)CC(NC(=O)[C@H](C)NC(=O)[C@@H]1CCN1c1ncc(F)cn1)B(O)O (single isomer, unassigned)
57.2

P = CC(C)CC(NC(=O)[C@H](Cc1ccccc1)NC(=O)[C@@H]1CCN1c1ccc(F)cc1)B(O)O (single isomer, unassigned)
Q = CC(C)CC(NC(=O)CNC(=O)[C@@H]1CCN1c1ccc(F)cc1F)B(O)O (single isomer, unassigned)
Which value of half-life is numerically greater: that of P or that of Q ? Your choice should be expressed through its label. Q
(Q: 43.1 min, P: 4.6 min)

====

System: MDR1
assayName: Cell membrane permeability test on MDR1-MDCK II cells
Format: in vitro ADME
measurementConditions: dog, pH 7.4, Papp B to A/Papp A to B
experimentalEndpoint: efflux ratio at 150 min, 2 μM

Study these solved cases before continuing.
CC(C)CC(NC(=O)CNC(=O)[C@@H]1CCN1c1ccc(C(F)(F)F)cn1)B(O)O (stereo partly shown)
13.8
CC(C)CC(NC(=O)CNC(=O)[C@@H]1CCN1c1ccc(F)cn1)B(O)O (single isomer, unassigned)
5
CC(C)CC(NC(=O)CNC(=O)[C@@H]1CCN1c1nc(C(F)(F)F)cs1)B(O)O (stereo partly shown)
9.33
CC(C)CC(NC(=O)[C@H](CC1CC1)NC(=O)[C@@H]1CCN1c1ccc(C(F)(F)F)cn1)B(O)O (stereo partly shown)
59.3
CC(C)CC(NC(=O)[C@H](C)NC(=O)[C@@H]1CCN1c1ncc(F)cn1)B(O)O (single isomer, unassigned)
7.16

P = CC(C)CC(NC(=O)[C@H](CC1CC1)NC(=O)[C@@H]1CCN1c1ncc(F)cn1)B(O)O (stereo partly shown)
Q = CC(C)CC(NC(=O)[C@H](Cc1ccccc1)NC(=O)[C@@H]1CCN1c1nccc(-c2ccccc2)n1)B(O)O (stereo partly shown)
// compare measured efflux ratio at 150 min, 2 μM between P and Q ; output the lower one Your choice should be expressed through its label. P
(P: 17, Q: 41.8)

====

Test system: MDR1
assayName: Cell membrane permeability test on MDR1-MDCK II cells
Type: in vitro ADME
measurementConditions: dog, 2 μM, 150 minutes, pH=7.4
experimentalEndpoint: Papp B→A at 150 min, 2 μM (nm/s)

Study these solved cases before continuing.
CC(C)CC(NC(=O)[C@H](C)NC(=O)[C@@H]1CCN1c1ncc(F)cn1)B(O)O (single isomer, unassigned)
12.9
CC(C)CC(NC(=O)[C@H](CC1CC1)NC(=O)[C@@H]1CCN1c1ncc(F)cn1)B(O)O (stereo partly shown)
51
CC(C)CC(NC(=O)[C@H](CC1CC1)NC(=O)[C@@H]1CCN1c1ccc(C(F)(F)F)cn1)B(O)O (stereo partly shown)
178
CC(C)CC(NC(=O)CNC(=O)[C@@H]1CCN1c1nc(C(F)(F)F)cs1)B(O)O (stereo partly shown)
22.4

1 = CC(C)CC(NC(=O)[C@H](Cc1ccccc1)NC(=O)[C@@H]1CCN1c1nccc(-c2ccccc2)n1)B(O)O (stereo partly shown)
2 = CC(C)CC(NC(=O)CNC(=O)[C@@H]1CCN1c1ccc(F)cc1F)B(O)O (single isomer, unassigned)
3 = CC(C)CC(NC(=O)CNC(=O)[C@@H]1CCN1c1ccc(F)cn1)B(O)O (single isomer, unassigned)
4 = CC(C)CC(NC(=O)CNC(=O)[C@@H]1CCN1c1ccc(C(F)(F)F)cn1)B(O)O (stereo partly shown)
List these items ordered by Papp B→A at 150 min, 2 μM, big to small. Answer format: list of labels, ordered as asked. 1, 2, 4, 3
(1: 184 nm/s, 2: 73.2 nm/s, 4: 37.4 nm/s, 3: 0.5 nm/s)

====

Test system: MM1.S cells
assayName: In vitro anti-proliferation test on MM1.S cells (CellTiter-Glo)
Type: cell-based
measurementConditions: Homo sapiens, 48 h, 2 days incubation, cell viability
experimentalEndpoint: IC50 (nM)

CC(C)CC(NC(=O)[C@H](CC1CC1)NC(=O)[C@@H]1CCN1c1ccc(C(F)(F)F)cn1)B(O)O (stereo partly drawn) [WX-306]
8.2
CC(C)CC(NC(=O)[C@H](CC1CC1)NC(=O)[C@@H]1CCN1c1ncc(F)cn1)B(O)O (stereo partly drawn) [WX-260]
11

I = CC(C)CC(NC(=O)CNC(=O)[C@@H]1CCN1c1ccc(C(F)(F)F)cn1)B(O)O (stereo partly drawn) [WX-329]
II = CC(C)CC(NC(=O)CNC(=O)[C@@H]1CCN1c1ccc(C#N)cc1F)B(O)O (stereo partly drawn) [WX-365]
III = CC(C)CC(NC(=O)CNC(=O)[C@@H]1CCN1c1cc(F)c(F)cc1F)B(O)O (stereo partly drawn) [WX-391]
IV = CC(C)CC(NC(=O)CNC(=O)[C@@H]1CCN1c1ccc(C(F)(F)F)cc1F)B(O)O (stereo partly drawn) [WX-355]
List these items ordered by IC50, big to small. Answer format: list of labels, ordered as asked. II, IV, I, III
